# credit: the supplement of paper PMC6755084

Measured fraction ligated, listed per entry for reference.
- Test system: F1*sub RNA substrate (template-directed ligation)
- assay method text: fraction ligated after 30 min (ligated reads / total reads); higher = more ligase activity; sequences stand for … in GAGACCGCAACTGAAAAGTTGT…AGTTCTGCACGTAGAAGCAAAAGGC
- assay setup: 42 °C
# answer = number (no unit)

Consider the worked cases shown below.
INSERT INTO results (ordered_residues, measured_on, endpoint_value) VALUES
  ('TATCACTTGTCGTAAGACACTGGATGGGTTG [3d2237]', 'F1*sub RNA substrate (template-directed ligation)', 0.778),
  ('TATCACTTGTCGTAAGACATTTGGATGGGTT [3d2229]', 'F1*sub RNA substrate (template-directed ligation)', 0.73);

I'd like to know its fraction ligated. The sequence in question is TATCACTTGTCTAAGCCTTTGGATGGGTTGA [3d1847]
0.776

Which fraction ligated value belongs to TATCACTTGTCGTAAGACATGGATGGGTTGA [3d2207] ?
0.808

Looking for the measured fraction ligated of TATCACTTGTCGTGACCTTTGGATGGGTTGA [3d1984] , can you help?
0.784

Param item = TATCACTTGTCGAAGACACTTTGGATGGTTG [3d1978] ; retrieve measured fraction ligated.
0.432

----------
Reported fraction ligated values for a set of sequences
- System: F1*sub RNA substrate (template-directed ligation)
- assay method text: fraction ligated after 30 min (ligated reads / total reads); higher = more ligase activity; sequences stand for … in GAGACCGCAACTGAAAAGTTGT…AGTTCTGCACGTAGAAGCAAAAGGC
- assay setup: 42 °C
Answer using only a numeral; do not append any unit.

Examples with answers:
INSERT INTO results (ordered_residues, test_readout, endpoint_value) VALUES
  ('TTCCTTGCGTAAGACACTTTGGATGGGTTGA [3d300]', 'fraction ligated', 0.779),
  ('TATATTGTCGTAAGACACTTGGATGGGTTGA [3d770]', 'fraction ligated', 0.641),
  ('TATACTTGTCGTAAGACATTTGGAGGGTTGA [3d921]', 'fraction ligated', 0.0163);

We next turn to a different sequence, shown below.
GET /values?readout=fraction ligated&item= TATCACTGTCGTAAGACCTTGGATGGGTTGA [3d1426]
0.809

----------
Parameter: fraction ligated. Scope: all listed entries.
- Test system: F1*sub RNA substrate (template-directed ligation)
- assay method text: fraction ligated after 30 min (ligated reads / total reads); higher = more ligase activity; sequences stand for … in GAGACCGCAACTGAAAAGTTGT…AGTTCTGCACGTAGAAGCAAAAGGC
- assay setup: 42 °C
Lab note: record the figure alone, no unit after it.

Take a look at these entries with their results.
INSERT INTO measurements (ordered_residues, test_readout, endpoint_value) VALUES
  ('TATCACTTGTCGTAAGCACTTTGGATGGTTG [3d2149]', 'fraction ligated', 0.17),
  ('TATCACTGTCTAAGACACTTTGGATGGGTTGA [2d132]', 'fraction ligated', 0.818),
  ('ATCACTTTCGTAAGACACTTTGATGGGTTGA [3d134]', 'fraction ligated', 0.401),
  ('ATCACTTGTCTAAGACATTTGGATGGGTTGA [3d177]', 'fraction ligated', 0.756),
  ('ATCACTTGTGTAAACACTTTGGATGGGTTGA [3d159]', 'fraction ligated', 0.837),
  ('TATCCTTGTCGTAAGAACTTTGGATGGTTGA [3d1080]', 'fraction ligated', 0.0325),
  ('TATCACTTGTCGAGACACTTGGATGGGTTGA [3d1908]', 'fraction ligated', 0.793),
  ('TTCACTTGTCGTAAGAACTTTGGATGGTTGA [3d467]', 'fraction ligated', 0.279);

Item under review: TATCACTTGTCGTAGACACTTTGGTGGGTTG [3d2051] . Reported fraction ligated?
0.101

State the recorded fraction ligated for this entry: TATCACTTGTCAAGACACTTTGGATGGGTTG [3d1822]
0.777

Entry TATCCTTTCGTAAGACACTTTGGATGGGTTA [3d982] has what fraction ligated?
0.371
